Let's look at some compounds and their measured inhibition.
Test: inhibitors of the yeast RAM network, pilot screen, dse1pr::URA3 reporter, 5-FOA selection (AID 869);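 further: 0% = DMSO wells with no growth and 100% = 10 µM 1-NA-PP1 with full growth; RAM network block rescues cells from 5-FOA so hits raise OD615 growth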
Settings: S. cerevisiae dse1pr::URA3 5-FOA growth, OD615, 2 d; at 10 µM; stronger effect = higher value; strain carries analog-sensitive mutant Cbk1 kinase
The reply should contain only the number, in %.

Worked cases, inhibition given:
CCOC(=O)N1CCN(C(=O)Cn2c(=O)sc3ccccc32)CC1: 1.68
O=C(O)C1C2C=CC(C2)C1C(=O)NCc1ccc2c(c1)OCO2 (stereo not drawn): 2.08
c1nc(N2CCNCC2)c2sc3nc(N4CCOCC4)c4c(c3c2n1)CCC4: 2.3
COc1cc(NC(=O)COc2ccc(F)cc2)nc(OC)n1: 1.72
COC(=O)c1c(-c2ccc(C)cc2)csc1N: -0.61
CCN1CCN(Cc2nc3c(c(=O)n(C)c(=O)n3C)n2Cc2ccccc2Cl)CC1: 1.17
O=C(CCc1nc2ccccc2[nH]1)N1CCc2ccccc2C1: 0.94
Cn1c(SCC(=O)Nc2cc(=O)n(C)c(=O)n2C)nnc1C12CC3CC(CC(C3)C1)C2: 2.03
CC1(C)CC(=O)C2=C(C1)Nc1ccccc1NC2c1cccnc1 (stereo not drawn): -0.195
Nc1cc(=O)[nH]c(SCc2nc3ccccc3n2Cc2ccccc2)n1: 0.71

What value of inhibition has been recorded for this entry: `CCc1nnc(NC(=O)c2ccc(S(=O)(=O)N(CCOC)CCOC)cc2)s1`
0.77

// same read-out, input: COc1ccc2c(c1)C(=O)CC(c1ccccc1F)O2 (stereo not drawn)
1.22

Record: `O=C(c1cc(-c2cccc(O)c2)on1)N1CCCCC1`
-0.46

Param item: `CC(C)c1ccc(NC(=O)c2cnn(-c3ccccc3)c2NC(=O)c2ccco2)cc1`
1.9

What do you get for Cc1cccc(C2N(c3ccc(F)cc3)C(=O)C3CCCN32)c1 (stereo not drawn) ?
0.71

Please answer likewise for `Cc1c(C(=O)NCCCN2CCOCC2)sc2nc(-c3ccccc3)cn12`
3.44

Similarly, `O=C(CCNS(=O)(=O)c1cccc2nsnc12)NCCC1=CCCCC1` ?
2.49

* * *

# maps each entry to its inhibition
Experiment: inhibitors of the yeast RAM network, pilot screen, dse1pr::URA3 reporter, 5-FOA selection (AID 869);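 further: 0% = DMSO wells with no growth and 100% = 10 µM 1-NA-PP1 with full growth; RAM network block rescues cells from 5-FOA so hits raise OD615 growth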
Details: S. cerevisiae dse1pr::URA3 5-FOA growth, OD615, 2 d; at 10 µM; stronger effect = higher value; strain carries analog-sensitive mutant Cbk1 kinase
Express your answer in %, writing the number without its unit.

I have this molecule here, `COc1ccc(N(CC(=O)NCc2cccs2)S(=O)(=O)c2cccnc2)cc1` , and I need its recorded inhibition.
0.045

Lookup `COCc1cc(C)nc(N2CCN(c3ccccc3)CC2)c1C#N`
2.28

Again, but for COc1ccc(C2=NOC(C(=O)N3CCN(c4ccccc4OC)CC3)C2)cc1 (centres undefined)
2.17

* * *

Assay: growth suppression of PTEN-deleted HCT116, pilot screen, cell-based, HCT116 clonal line, CellTiter-Glo (AID 824);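 further: 0% = 20 µM Hyamine control and 100% = vehicle cell control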
Conditions: 60 h, at 10 µM, stronger effect = lower value
Results filed as inconclusive are left out.
Entries and their measured viability follow.
Record the value in %, omitting the unit from your answer.

CN(CCc1ccccn1)C(=O)Nc1ccc(F)cc1: 98
CCCN1C(=O)c2cc(C(=O)NCCc3cccc(C)c3)ccc2C1O (stereo not drawn): 104
COc1ccc(OC)c(N(CC(=O)Nc2ccc3c(c2)OCCO3)S(C)(=O)=O)c1: 89.8

Query (compound): `O=C(Nc1ccccc1C(=O)NCc1ccco1)NC1CCCCC1` ; field requested: viability
92.8

Let us now turn to `COc1cc(NC(=O)Cn2ncc3c2-c2ccccc2OC3)cc(OC)c1OC`
83.5

And for CCC(C)NC(=O)CS(=O)Cc1nc(-c2cccc(OC)c2)oc1C (stereo not drawn) ?
94.5

Same question for `CCOC(=O)N1CCN(c2c(N3CCc4ccccc43)c(=O)c2=O)CC1` please.
100

Consider next the compound `O=C(CNC(=O)c1ccccc1F)NC1CC1` in the same way.
96.4

What do you get for `COC(=O)c1c(C)oc2ccc(OC(=O)c3cccs3)cc12` ?
99.5

Ok, now `Cc1nccc2[nH]c(=O)c(C(=O)NC3CCN(Cc4ccccc4)CC3)cc12`
93.9

Try this compound next: `Cc1ccc(C(=O)COC(=O)c2cnccn2)cc1`
97.8

Consider next the compound `CCOC(=O)N1CCC(NC(=O)CN2C(=O)CSc3nc(C)cc(C)c32)CC1` in the same way.
97.7

Same read-out for `C=C(C)Cn1c(N2CCCC2)nc2c1c(=O)[nH]c(=O)n2C` ?
96.6

Another: COc1ccc(C2CC(=O)N3CN(c4ccccc4F)CSC3=C2C#N)cc1OC (stereo not drawn)
95.5

Input CN(CCNC(=O)C1CC(=O)N(C2CCCC2)C1)Cc1ccccc1 (stereo not drawn)
98.3

Consider next the compound `CCOC(=O)C1CCN(C(=O)c2cc3c(-c4ccc(OC)c(OC)c4)nn(C)c3s2)CC1` in the same way.
98.9

Now the same for `Cc1cc(C(=O)N2CCN(S(C)(=O)=O)CC2)cs1`
88.9

Next record, please: `CC(C)c1cc(N2CCN(C(=O)c3ccco3)CC2)n2c(nc3ccccc32)c1C#N`
91.6

Could you do the same for COC(=O)C1=C(C)N=c2s/c(=C3\C(=O)Nc4ccccc43)c(=O)n2C1c1ccccc1 (stereo not drawn) , please?
91.6

Here is the next compound: `CCOC(=O)CC(=O)Nc1ccc(C(=O)OCC)cc1`
105

What do you get for CC1CN(c2cc(=O)n(Cc3ccc(F)cc3)c(=O)[nH]2)CC(C)O1 (stereo not drawn) ?
105

Please do the same for `Cc1noc(C)c1S(=O)(=O)NCc1ccc2c(c1)OCO2` as well.
93.6

Queued: `COc1ccc(OC)c2c(C)cc(NCCN3CCOCC3)nc12`
84.9
